- tgt: hKOPR (Homo sapiens (Human), UniProt P41145)
- assayMethodText: biochemical
- conditionContext: read-out: EC50
quantityName: EC50 (nM)

>  <compound>
COC(=O)[C@@H]1C[C@H](OC(C)=O)C(=O)[C@H]2[C@@]1(C)CC[C@H]1C(=O)O[C@H](COC(C)=O)C[C@]21C [Compound 11]

>  <quantityName>
EC50

>  <assayResult>
299

$$$$
>  <compound>
COC(=O)[C@@H]1C[C@H](OC(C)=O)C(=O)[C@H]2[C@@]1(C)CC[C@H]1C(=O)O[C@H](C(O)c3ccco3)C[C@]21C (stereo partly drawn) [Compound 17]

>  <quantityName>
EC50

>  <assayResult>
36

$$$$
>  <compound>
COC(=O)[C@@H]1C[C@H](OC(C)=O)C(=O)[C@H]2[C@@]1(C)CC[C@H]1C(=O)O[C@H](C(=O)c3cnccn3)C[C@]21C [Compound 16]

>  <quantityName>
EC50

>  <assayResult>
195

$$$$
>  <compound>
COC[C@@H]1C[C@]2(C)[C@H]3C(=O)[C@@H](OC(C)=O)C[C@@H](C(=O)OC)[C@]3(C)CC[C@H]2C(=O)O1 [Compound 9]

>  <quantityName>
EC50

>  <assayResult>
330

$$$$
>  <compound>
COC(=O)[C@@H]1C[C@H](OC(C)=O)C(=O)[C@H]2[C@@]1(C)CC[C@H]1C(=O)O[C@H](C(=O)c3cccs3)C[C@]21C [Compound 13]

>  <quantityName>
EC50

>  <assayResult>
101

$$$$
>  <compound>
COC(=O)[C@@H]1C[C@H](OC(C)=O)C(=O)[C@H]2[C@@]1(C)CC[C@H]1C(=O)O[C@H](C(=O)OC(C)C)C[C@]21C [Compound 20]

>  <quantityName>
EC50

>  <assayResult>
337

$$$$

###

- tgt: human KOPR (hKOPR) (Homo sapiens (Human), UniProt P41145)
pKi: −log10 of the molar value.
Reported pKi values for a set of compounds

>  <compound>
COC(=O)[C@@H]1C[C@H](OC(C)=O)C(=O)[C@H]2[C@@]1(C)CC[C@H]1C(=O)O[C@H](C(=O)OC(C)C)C[C@]21C

>  <pKi>
6.96

$$$$
>  <compound>
COC[C@@H]1C[C@]2(C)[C@H]3C(=O)[C@@H](OC(C)=O)C[C@@H](C(=O)OC)[C@]3(C)CC[C@H]2C(=O)O1

>  <pKi>
6.30

$$$$
>  <compound>
COC(=O)[C@@H]1C[C@]2(C)[C@H]3C(=O)[C@@H](OC(C)=O)C[C@@H](C(=O)OC)[C@]3(C)CC[C@H]2C(=O)O1

>  <pKi>
6.81

$$$$
>  <compound>
CCOC(=O)[C@@H]1C[C@]2(C)[C@H]3C(=O)[C@@H](OC(C)=O)C[C@@H](C(=O)OC)[C@]3(C)CC[C@H]2C(=O)O1

>  <pKi>
6.71

$$$$
>  <compound>
COC(=O)[C@@H]1C[C@H](OC(C)=O)C(=O)[C@H]2[C@@]1(C)CC[C@H]1C(=O)O[C@H](C(=O)c3cnccn3)C[C@]21C

>  <pKi>
7.08

$$$$
>  <compound>
COC(=O)[C@@H]1C[C@H](OC(C)=O)C(=O)[C@H]2[C@@]1(C)CC[C@H]1C(=O)O[C@H](C(=O)c3cccs3)C[C@]21C

>  <pKi>
7.42

$$$$
>  <compound>
C=Cc1occc1[C@@H]1C[C@]2(C)[C@H]3C(=O)[C@@H](OC(C)=O)C[C@@H](C(=O)OC)[C@]3(C)CC[C@H]2C(=O)O1

>  <pKi>
8.15

$$$$
>  <compound>
CCOC[C@@H]1C[C@]2(C)[C@H]3C(=O)[C@@H](OC(C)=O)C[C@@H](C(=O)OC)[C@]3(C)CC[C@H]2C(=O)O1

>  <pKi>
6.30

$$$$
>  <compound>
COC(=O)[C@@H]1C[C@H](OC(C)=O)C(=O)[C@H]2[C@@]1(C)CC[C@H]1C(=O)O[C@H](COC(C)=O)C[C@]21C

>  <pKi>
6.26

$$$$
>  <compound>
COC(=O)[C@@H]1C[C@H](OC(C)=O)C(=O)[C@H]2[C@@]1(C)CCC1C(=O)O[C@H](C(=O)O)C[C@@]12C (some centres unmarked)

>  <pKi>
7.26

$$$$
>  <compound>
COC(=O)[C@@H]1C[C@H](OC(C)=O)C(=O)[C@H]2[C@@]1(C)CC[C@H]1C(=O)O[C@H](C(O)c3ccco3)C[C@]21C (some centres unmarked)

>  <pKi>
7.70

$$$$

###

Reported pEC50 values for a set of compounds
- tgt: hKOPR (Homo sapiens (Human), UniProt P41145)
- assayMethodText: biochemical
- conditionContext: read-out: EC50
pEC50: −log10 of the molar value.
quantityName: pEC50

>  <compound>
CCOC(=O)[C@@H]1C[C@]2(C)[C@H]3C(=O)[C@@H](OC(C)=O)C[C@@H](C(=O)OC)[C@]3(C)CC[C@H]2C(=O)O1 [Compound 19]

>  <assayResult>
6.29

$$$$
>  <compound>
COC(=O)[C@@H]1C[C@H](OC(C)=O)C(=O)[C@H]2[C@@]1(C)CCC1C(=O)O[C@H](C(=O)O)C[C@@]12C (stereo partly shown) [Compound 7]

>  <assayResult>
6.78

$$$$
>  <compound>
COC(=O)[C@@H]1C[C@]2(C)[C@H]3C(=O)[C@@H](OC(C)=O)C[C@@H](C(=O)OC)[C@]3(C)CC[C@H]2C(=O)O1 [Compound 18]

>  <assayResult>
6.44

$$$$
>  <compound>
C=Cc1occc1[C@@H]1C[C@]2(C)[C@H]3C(=O)[C@@H](OC(C)=O)C[C@@H](C(=O)OC)[C@]3(C)CC[C@H]2C(=O)O1 [Compound 3]

>  <assayResult>
8.34

$$$$

###

- tgt: hKOPR (Homo sapiens (Human))
- assayMethodText: biochemical
- conditionContext: read-out: Efficacy (Percent of the maximal effect of U50,488H)
quantityName: Emax (%)

>  <molecule>
COC(=O)[C@@H]1C[C@H](OC(C)=O)C(=O)[C@H]2[C@@]1(C)CC[C@H]1C(=O)O[C@H](COC(C)=O)C[C@]21C

>  <tgt>
hKOPR (Homo sapiens (Human))

>  <quantityName>
Emax

>  <assayResult>
113

$$$$
>  <molecule>
COC(=O)[C@@H]1C[C@H](OC(C)=O)C(=O)[C@H]2[C@@]1(C)CC[C@H]1C(=O)O[C@H](C(=O)c3cnccn3)C[C@]21C

>  <tgt>
hKOPR (Homo sapiens (Human))

>  <quantityName>
Emax

>  <assayResult>
103

$$$$
>  <molecule>
C=Cc1occc1[C@@H]1C[C@]2(C)[C@H]3C(=O)[C@@H](OC(C)=O)C[C@@H](C(=O)OC)[C@]3(C)CC[C@H]2C(=O)O1

>  <tgt>
hKOPR (Homo sapiens (Human))

>  <quantityName>
Emax

>  <assayResult>
120

$$$$
>  <molecule>
CCOC(=O)[C@@H]1C[C@]2(C)[C@H]3C(=O)[C@@H](OC(C)=O)C[C@@H](C(=O)OC)[C@]3(C)CC[C@H]2C(=O)O1

>  <tgt>
hKOPR (Homo sapiens (Human))

>  <quantityName>
Emax

>  <assayResult>
94

$$$$
>  <molecule>
COC[C@@H]1C[C@]2(C)[C@H]3C(=O)[C@@H](OC(C)=O)C[C@@H](C(=O)OC)[C@]3(C)CC[C@H]2C(=O)O1

>  <tgt>
hKOPR (Homo sapiens (Human))

>  <quantityName>
Emax

>  <assayResult>
98

$$$$
>  <molecule>
COC(=O)[C@@H]1C[C@H](OC(C)=O)C(=O)[C@H]2[C@@]1(C)CC[C@H]1C(=O)O[C@H](C(=O)OC(C)C)C[C@]21C

>  <tgt>
hKOPR (Homo sapiens (Human))

>  <quantityName>
Emax

>  <assayResult>
94

$$$$
>  <molecule>
COC(=O)[C@@H]1C[C@]2(C)[C@H]3C(=O)[C@@H](OC(C)=O)C[C@@H](C(=O)OC)[C@]3(C)CC[C@H]2C(=O)O1

>  <tgt>
hKOPR (Homo sapiens (Human))

>  <quantityName>
Emax

>  <assayResult>
99

$$$$
>  <molecule>
COC(=O)[C@@H]1C[C@H](OC(C)=O)C(=O)[C@H]2[C@@]1(C)CC[C@H]1C(=O)O[C@H](C(=O)c3cccs3)C[C@]21C

>  <tgt>
hKOPR (Homo sapiens (Human))

>  <quantityName>
Emax

>  <assayResult>
103

$$$$
>  <molecule>
COC(=O)[C@@H]1C[C@H](OC(C)=O)C(=O)[C@H]2[C@@]1(C)CC[C@H]1C(=O)O[C@H](C(O)c3ccco3)C[C@]21C (stereo partly drawn)

>  <tgt>
hKOPR (Homo sapiens (Human))

>  <quantityName>
Emax

>  <assayResult>
114

$$$$
